# Test system: CCRF-CEM leukemia
# Assay name: NCI tumour cell line growth inhibition, 48 h
Measured parameter: GI50

Use these answered entries as a reference point.
Compound	Target desc	GI50
C#COc1cccc(Nc2c(C#N)cnc3ncc(NC(=O)CCl)cc23)c1	CCRF-CEM leukemia	3720 nM
C=C1C(=O)O[C@H]2[C@H]1CC/C(COC(=O)/C=C\C(=O)NCc1ccc(Cn3c(=O)sn(CCCC)c3=O)cc1)=C\CC[C@@]1(C)O[C@@H]21	CCRF-CEM leukemia	275 nM
O=C(Nc1ccc(-n2ccc3c(NC(=O)c4ccccc4)nccc32)cc1)Nc1ccc(Cl)c(Cl)c1	CCRF-CEM leukemia	252 nM

[in] # lookup: GI50 of O=C(CSC1CCc2ccccc21)N/N=C/c1ccccc1O (stereo not given)
[out] 1640 nM

[in] # lookup: GI50 of `COc1ccc(CCNC(=O)c2ccc(NC3=C(Cl)C(=O)N(Cc4ccccc4)C3=O)cc2)cc1OC`
[out] 480 nM

[in] # lookup: GI50 of CCN1C(=O)N(CC)C2C1NN=c1s/c(=C3\C(=O)N(CC(C)(C)C)c4ccccc43)c(=O)n12 (stereo not given)
[out] 3620 nM

[in] # lookup: GI50 of `CCCCCOc1ccc(/C=N/Nc2cc(C)nc3ccc(Br)cc23)cc1`
[out] 1540 nM

[in] # lookup: GI50 of `CC(=O)[O][Ga]([Br])[O]C(C)=O`
[out] > 100000 nM

[in] # lookup: GI50 of `COc1ccc(O)c(C(=O)c2ccc(C(=O)N[C@H]3CCCNC[C@@H]3NC(=O)c3ccncc3)cc2)c1F`
[out] 721 nM

[in] # lookup: GI50 of `OCCCNc1nccc(-c2c(-c3ccc(F)cc3)nn3cc(C(F)(F)F)ccc23)n1`
[out] 11400 nM

====

# Tested on: K-562 leukemia
# Assay name: NCI tumour cell line growth inhibition, 48 h
Measured parameter: TGI

Use these answered entries as a reference point.
Compound	TGI
O=C(O/C=C\OC1CCCC1(c1ccccc1)c1ccccc1)c1ccccc1 (configuration not stated)	> 36 µM
O=Cc1ccc2c(c1-c1c(C=O)ccc3c1OCO3)OCO2	> 100 µM

[in] Any idea what TGI came out for `O=C(Nc1ccc(F)cc1)c1cc(S(=O)(=O)Nc2nc3ccccc3o2)c(SCc2ccccc2)cc1Cl` on K-562 leukemia?
[out] 99.6 µM

[in] Any idea what TGI came out for `Cc1cc(C)c2c(c1)C/C(=C\c1ccccc1C(=O)O)C2=O` on K-562 leukemia?
[out] > 100 µM

[in] Any idea what TGI came out for `O=C(Oc1ccccc1)N1c2ccccc2[C@@]23O[C@]24CCC[C@H]3C#C/C=C\C#C[C@H]14` on K-562 leukemia?
[out] > 100 µM

[in] Any idea what TGI came out for `O=C(c1cccs1)N(C(=O)N1CCN(c2ccccc2)CC1)S(=O)(=O)c1ccccc1` on K-562 leukemia?
[out] 80.5 µM

[in] Any idea what TGI came out for `CCOC(=O)CO/N=C1/C(c2c(O)[nH]c3ccccc23)=Nc2ccccc21` on K-562 leukemia?
[out] > 100 µM

[in] Any idea what TGI came out for `O=C(CCc1cc(O)ccc1O)OCCc1ccccc1` on K-562 leukemia?
[out] 30.9 µM

[in] Any idea what TGI came out for `CC(=O)O/C(=C1\C[C@H]2[C@@H]3CC=C4C[C@@H](OC(C)=O)CC[C@]4(C)[C@H]3CC[C@]2(C)C1=O)C(F)(F)F` on K-562 leukemia?
[out] 15.1 µM

====

# Tested on: OVCAR-3 ovarian
# Assay name: NCI tumour cell line growth inhibition, 48 h
Measured parameter: TGI

Use these answered entries as a reference point.
Compound	TGI
COc1ccc(-c2coc3c4c(ccc3c2=O)OCO4)cc1OC	> 100 µM
C=C(C(=O)O)[C@@H]1C[C@@H](OC(C)=O)[C@]2(C)CC/C=C(\C)CCC[C@H](C)[C@H](O)[C@@H]1O2	> 100 µM
CN(C)CC1CCC/C(=C\c2ccc(Cl)cc2)C1=O (stereo not given)	12.1 µM
Cc1cc(C)c(/C=C2\C(=O)Nc3ccc(NC(=O)CCCCCCC(=O)NO)cc32)[nH]1	> 78.2 µM
O=C1NC(=O)C(c2c[nH]c3ccccc23)=C1c1cn(C(c2ccccc2)(c2ccccc2)c2ccccc2)cn1	19.6 µM

[in] Any idea what TGI came out for `O=S1(=O)Cc2ccc3c4c2-c2c(ccc5ccc(c-4c25)CS(=O)(=O)C3)C1` on OVCAR-3 ovarian?
[out] > 100 µM

[in] Any idea what TGI came out for `O=C(N[C@@H](c1ccccc1)[C@@H](O)C(=O)OCc1ccc([N+](=O)[O-])cc1)c1ccccc1` on OVCAR-3 ovarian?
[out] > 100 µM

[in] Any idea what TGI came out for `COc1cc(C(=O)N2CCN(c3ncccn3)CC2)c(N)cc1OCc1ccccc1` on OVCAR-3 ovarian?
[out] > 100 µM

[in] Any idea what TGI came out for COc1ccc(C2OC(N)=C(C#N)C3=C2CCCC3C)cc1OC (stereo not given) on OVCAR-3 ovarian?
[out] > 100 µM

[in] Any idea what TGI came out for CC1CC[C@@]2(OC1)OC1C[C@H]3[C@@H]4CC[C@H]5CC(OC6OC(CO)C(O)C(OC7OC(CO)C(OC8OC(CO)C(O)C(OC9OC(CO)C(O)C(O)C9O)C8OC8OC(CO)C(O)C(O)C8O)C(O)C7O)C6O)[C@H](O)CC5(C)[C@H]4CCC3(C)C1[C@@H]2C (stereo not given in full) on OVCAR-3 ovarian?
[out] 1.93 µM

====

# Tested on: HT29 colon
# Assay name: NCI tumour cell line growth inhibition, 48 h
Use 40 µM as the dividing line for TGI, with the line itself on the y side and lower values as n.

Please review the entries below; each comes with its answer.
Compound	Discrete label
CC(=O)O[C@H]1CC[C@@]2(C)C(=CC[C@@H]3[C@@H]2CC[C@]2(C)NC(=O)/C(=C\c4ccccc4)C[C@@H]32)C1	n
O=C(CSC1CCc2ccccc21)N/N=C/c1ccccc1O (stereo not given)	y
COC(=O)c1ccccc1Nc1nc(-c2cccs2)nc2cc(OC)c(OC)cc12	y

Let us examine a further case.
[in] I'd appreciate it if you could say whether `Cc1cc(C)c(/C=C2\C(=O)Nc3ccc(NC(=O)CCCCCCC(=O)NO)cc32)[nH]1` has TGI at least equal to 40 µM.
[out] y

====

# Tested on: A549 NSCLC
# Assay name: NCI tumour cell line growth inhibition, 48 h
Recorded GI50 values for a group of molecules are listed next.

Use these answered entries as a reference point.
Molecule	Result
Cc1cc(C)c(NC(=O)c2sc3nc4c(cc3c2N)CN(Cc2ccccc2)CC4)c(C)c1	4.11 µM
CN1C(=O)/C(=C/c2c(Cl)n(C)c3ccccc23)c2ccccc21	7.78 µM
NC(=O)c1cc(S(=O)(=O)Nc2nnc(-c3ccccc3)c(-c3ccccc3)n2)c(SCc2ccccc2)cc1Cl	> 100 µM
Cc1cc(C)c(/C=C2\C(=O)Nc3ccc(NC(=O)CCCCCCC(=O)NO)cc32)[nH]1	> 100 µM

Would you kindly look at the next entry?
[in] # lookup: GI50 of CC(C)(S)C(N)C(=O)O (stereo not given)
[out] 1780 µM

====

# System: SN12C renal
# Assay name: NCI tumour cell line growth inhibition, 48 h
Recorded TGI values for a group of compounds are listed next.

Use these answered entries as a reference point.
Compound	Target desc	TGI
COc1ccc(O)c(C(=O)c2ccc(C(=O)N[C@H]3CCCNC[C@@H]3NC(=O)c3ccncc3)cc2)c1F	SN12C renal	> 25 µM
CCN(Cc1ccccc1C)c1ccc(CO)c(Cl)c1	SN12C renal	25.9 µM
O=S(=O)(c1ccccc1)C1CN2OC1(S(=O)(=O)c1ccccc1)CC2c1ccc(Br)cc1 (configuration not stated)	SN12C renal	> 100 µM
CN1C(=O)c2ccccc2OC12C=Cc1ccc(O)cc1O2 (configuration not stated)	SN12C renal	> 100 µM
OCc1ccn2c1[C@@H](O)CC2	SN12C renal	> 100 µM
O=C1NC(=O)C(c2c[nH]c3ccccc23)=C1c1cn(C(c2ccccc2)(c2ccccc2)c2ccccc2)cn1	SN12C renal	20.3 µM

[in] # lookup: TGI of Cc1cc2c(cc1C)C(=O)C1(C2)Cc2c(C)ccc(C)c2C1=O (configuration not stated)
[out] > 100 µM

====

# Tested on: UACC-62 melanoma
# Assay name: NCI tumour cell line growth inhibition, 48 h
Recorded TGI values for a group of compounds are listed next.
Numeric answer only, unit µM assumed.

Compound string	Target desc	Number
CCOC(=O)/C=C(/C)Sc1cc(O)c2ccccc2c1O	UACC-62 melanoma	14
O[C@H](c1cc(C(F)(F)F)nc2c(C(F)(F)F)cccc12)[C@@H]1CCCCN1	UACC-62 melanoma	17.5

Would you kindly look at the next entry?
[in] Any idea what TGI came out for `C/C(=N/NC(=S)Nc1ccc(Cl)cc1)c1cccc(/C(C)=N\NC(=S)Nc2ccc(Cl)cc2)n1` on UACC-62 melanoma?
[out] 43.1
